EXPERIMENTAL SYSTEM: Toxin A (Clostridioides difficile, UniProt P16154)
Sequence (P16154 whole entry): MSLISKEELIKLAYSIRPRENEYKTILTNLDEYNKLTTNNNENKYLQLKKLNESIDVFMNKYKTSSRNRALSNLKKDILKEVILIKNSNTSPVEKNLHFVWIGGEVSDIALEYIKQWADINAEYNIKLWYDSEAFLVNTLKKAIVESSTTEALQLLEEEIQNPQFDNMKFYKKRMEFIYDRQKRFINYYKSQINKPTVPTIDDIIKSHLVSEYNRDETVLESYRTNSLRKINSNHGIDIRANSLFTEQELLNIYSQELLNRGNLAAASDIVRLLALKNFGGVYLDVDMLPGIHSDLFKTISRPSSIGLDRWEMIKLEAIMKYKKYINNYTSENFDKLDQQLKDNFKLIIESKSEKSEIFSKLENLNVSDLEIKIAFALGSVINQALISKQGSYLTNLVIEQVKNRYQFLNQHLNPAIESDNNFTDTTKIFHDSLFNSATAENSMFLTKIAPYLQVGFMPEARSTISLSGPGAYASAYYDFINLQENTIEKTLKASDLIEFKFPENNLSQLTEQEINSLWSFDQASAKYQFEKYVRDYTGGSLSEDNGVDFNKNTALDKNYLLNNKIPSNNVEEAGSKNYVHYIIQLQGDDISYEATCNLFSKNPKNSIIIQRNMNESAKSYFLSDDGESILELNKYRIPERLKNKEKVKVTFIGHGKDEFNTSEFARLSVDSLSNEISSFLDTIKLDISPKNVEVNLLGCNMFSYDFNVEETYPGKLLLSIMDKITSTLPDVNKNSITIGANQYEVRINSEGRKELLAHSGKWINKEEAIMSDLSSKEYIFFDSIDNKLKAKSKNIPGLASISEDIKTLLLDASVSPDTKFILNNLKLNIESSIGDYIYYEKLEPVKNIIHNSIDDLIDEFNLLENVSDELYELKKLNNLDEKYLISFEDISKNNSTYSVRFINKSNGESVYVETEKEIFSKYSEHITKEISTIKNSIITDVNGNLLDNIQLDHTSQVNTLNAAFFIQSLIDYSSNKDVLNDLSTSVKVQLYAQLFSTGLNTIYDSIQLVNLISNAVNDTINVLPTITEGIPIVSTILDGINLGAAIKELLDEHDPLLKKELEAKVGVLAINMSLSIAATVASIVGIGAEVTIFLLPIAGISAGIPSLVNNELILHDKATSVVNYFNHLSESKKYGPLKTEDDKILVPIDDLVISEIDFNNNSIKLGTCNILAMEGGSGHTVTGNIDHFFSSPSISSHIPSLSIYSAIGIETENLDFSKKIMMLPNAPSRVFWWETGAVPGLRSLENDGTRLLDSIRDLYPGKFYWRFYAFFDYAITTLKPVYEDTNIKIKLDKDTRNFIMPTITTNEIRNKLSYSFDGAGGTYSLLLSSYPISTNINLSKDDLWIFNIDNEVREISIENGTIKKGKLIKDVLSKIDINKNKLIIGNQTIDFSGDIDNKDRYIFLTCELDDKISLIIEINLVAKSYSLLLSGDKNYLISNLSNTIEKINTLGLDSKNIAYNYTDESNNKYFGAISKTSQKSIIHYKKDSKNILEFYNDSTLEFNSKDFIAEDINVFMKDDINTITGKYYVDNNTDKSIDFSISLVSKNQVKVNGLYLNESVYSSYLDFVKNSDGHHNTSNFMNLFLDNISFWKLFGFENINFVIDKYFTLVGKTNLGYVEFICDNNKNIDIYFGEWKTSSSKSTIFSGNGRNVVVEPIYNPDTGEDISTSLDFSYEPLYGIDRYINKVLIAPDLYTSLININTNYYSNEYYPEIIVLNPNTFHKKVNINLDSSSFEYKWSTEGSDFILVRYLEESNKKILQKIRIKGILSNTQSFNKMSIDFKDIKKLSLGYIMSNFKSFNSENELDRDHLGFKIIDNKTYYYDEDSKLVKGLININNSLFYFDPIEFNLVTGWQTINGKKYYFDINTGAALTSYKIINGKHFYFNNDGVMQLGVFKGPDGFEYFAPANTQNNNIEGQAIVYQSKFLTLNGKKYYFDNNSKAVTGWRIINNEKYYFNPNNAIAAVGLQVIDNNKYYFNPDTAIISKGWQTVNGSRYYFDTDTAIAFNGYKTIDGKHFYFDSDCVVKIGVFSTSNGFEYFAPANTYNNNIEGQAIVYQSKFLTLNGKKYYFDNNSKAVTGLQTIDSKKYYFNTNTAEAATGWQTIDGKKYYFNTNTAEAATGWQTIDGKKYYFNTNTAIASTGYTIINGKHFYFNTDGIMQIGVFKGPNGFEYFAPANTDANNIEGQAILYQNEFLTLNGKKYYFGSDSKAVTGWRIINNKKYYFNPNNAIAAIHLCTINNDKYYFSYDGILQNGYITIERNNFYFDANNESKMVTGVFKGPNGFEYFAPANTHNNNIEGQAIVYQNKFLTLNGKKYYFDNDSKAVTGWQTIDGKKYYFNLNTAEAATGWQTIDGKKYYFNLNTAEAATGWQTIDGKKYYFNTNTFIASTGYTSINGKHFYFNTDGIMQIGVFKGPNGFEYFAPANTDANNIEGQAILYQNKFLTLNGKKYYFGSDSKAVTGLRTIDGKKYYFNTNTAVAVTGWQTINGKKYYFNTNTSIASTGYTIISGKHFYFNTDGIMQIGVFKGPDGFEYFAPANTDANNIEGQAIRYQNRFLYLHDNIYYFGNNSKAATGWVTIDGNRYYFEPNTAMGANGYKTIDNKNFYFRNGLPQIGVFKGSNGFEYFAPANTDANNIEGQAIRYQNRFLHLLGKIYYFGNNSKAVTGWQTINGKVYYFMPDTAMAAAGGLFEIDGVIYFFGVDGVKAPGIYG
ASSAY NAME: Inhibition of Clostridium difficile toxin A […] CHO cells assessed as reduction in caspase 3/7 activation pre-incubated for 1 hr before TcdA addition by luminescence based assay
pIC50: −log10 of the molar value.
Label 0.0 if pIC50 falls below 6; label 1.0 in every other case.

INSERT INTO assay_data (smiles_repr, assigned_category) VALUES
  ('Cc1ccc(NC(=O)c2ccc(CN3C(=O)c4ccc(Cl)cc4NC(=O)[C@H]3Cc3ccccn3)cc2Cl)nc1', 1.0),
  ('Cn1cnc(C(=O)c2ccc(CN3C(=O)c4ccc(Cl)cc4NC(=O)[C@H]3Cc3ccccn3)cc2)c1', 0.0),
  ('Cc1cnc(NC(=O)c2ccc(CN3C(=O)c4ccc(Cl)cc4NC(=O)[C@H]3Cc3ccccn3)cc2C)nc1', 0.0),
  ('O=C(c1ccc(CN2C(=O)c3ccc(Cl)cc3NC(=O)[C@H]2Cc2ccccn2)cc1)c1ccccn1', 0.0),
  ('COc1ccc(NC(=O)c2ccc(CN3C(=O)c4ccc(Cl)cc4NC(=O)[C@H]3Cc3ccccn3)cc2C)nc1', 1.0),
  ('Cc1cc(CN2C(=O)c3ccc(Cl)cc3NC(=O)[C@H]2Cc2ccccn2)ccc1C(=O)Nc1ccc(C(F)(F)F)cn1', 0.0),
  ('O=C(Nc1ccc(F)cn1)c1ccc(CN2C(=O)c3ccc(Cl)cc3NC(=O)[C@H]2Cc2ccccn2)cc1Cl', 0.0),
  ('O=C(c1ccc(CN2C(=O)c3ccc(Cl)cc3NC(=O)[C@H]2Cc2ccccn2)cc1)c1c[nH]c2cccnc12', 0.0);
